assay: NCI Yeast Anticancer Drug Screen. Data for the cln2 rad14 strain (AID 165); details: S. cerevisiae cln2 rad14 strain, at 50.0 µM
This is part of a sample that, as a whole, favours compounds with a hit. Of some 79,000 tested, about 15% had one in any assay. Activity calls are given as the source filed them. Rule as the data show it: active = growth inhibition above about 70%; inactive = the rest.
Tick one outcome: y (active), n (inactive)

O=P1(N(CCCl)CCCl)Oc2ccc(Cl)cc2Sc2c(ccc(Cl)c2Cl)O1 (stereo unspecified) : n
Cc1ccc([Se][Se]c2ccc(C)cc2)cc1 : n
COc1cc2c(cc1O)-c1c(OC)c(O)cc3c1C(C2)N(C)CC3 (stereo unspecified) : n
CNC(Cc1ccccc1)c1ccc(O)c(OC)c1 (stereo unspecified) : n
O=Cc1ccccc1O.[Zn+2] : n
C[N+]12CCC34C5=CC(=O)C(=O)C=C5[N+]5(C)C(=O)CC6OCC=C(C1)C(CC32)C6C45 (stereo unspecified) : n

Next:
IN: Given C[N+]1(C)CCCC1c1cccnc1 (stereo unspecified) , state the outcome it received in this test.
OUT: n
